Data origin: the domain aggregation screens of Martell et al. (2025)

Experiment: soluble fraction after stress (log2 fold change); higher = more stays soluble; pooled small domains, quantitative proteomics;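 further: 20 min heating vs room temperature control held 20 min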
Details: stress: 75 degC
readout_kind: soluble fraction (log2)
Give bare numbers.

Would you please look over these solved cases?
>  <sequence_code>
HMTEQLTLVGKTGVTTTDLRPSGKVEVDGKRYDAVADNGAFISKGAHIKVVRYVTGQVYVVPTD

>  <data_value>
-0.0624

$$$$
>  <sequence_code>
HMGPRVSAGPGRHRVQPGDTLDDIAARYRVSSRDLMLVNGLRNANHVEAGQTLKLPSNAVIA

>  <data_value>
0.15

$$$$
>  <sequence_code>
HMATPKRGFRKQLAPLVQSGTITREEAGELSRSSGDATALRTKIGELMKAGKLTRKEAGELYSDAFPENA

>  <data_value>
0.145

$$$$

Looking up HMKNLSQAEFMYLFKILAFGSTDPDNHPEMAATGMEIAKMLQGLLLSGNVLADILRKNQNVQFWL , I found its soluble fraction (log2) recorded as 0.0572

###

Assign soluble fraction (log2) to each entry below.
Experiment: soluble fraction after stress (log2 fold change); higher = more stays soluble; pooled small domains, quantitative proteomics
Settings: stress: 75 degC
Give bare numbers.

// solved cases for soluble fraction (log2) follow
>  <sequence_code>
HMVKPKIILADIGMITETDVTLAKASQAVLIAFNVKPSKEAKKLAEDENIKISTYNIIYEVLDFVKKSMSG

>  <data_value>
0.304

$$$$
>  <sequence_code>
HMDVQEILGALSPDEKAAIGQLTSGEKHIDQIIAATRLPAARITSALTLLQIKGYVRALPGKRFSLTEKQ

>  <data_value>
-1.87

$$$$
>  <sequence_code>
HMSRLQDAELQAQIDKMAGAMQLRDIPVYVQDIPTINGLAAPDGRVFITQGFIDKYKLGEVSAGEIASVI

>  <data_value>
0.29

$$$$
>  <sequence_code>
HMAGASQAVKAQLRLREMILAGELPGGARIAELTLVEKLGVSRTPIRAALMRLEQEGLLHRLPGGGYAVRT

>  <data_value>
-2.27

$$$$

Please look at the items below and tell me soluble fraction (log2) for each one, in order.
1. HMLPLHFIEIVSLKKIDTLTKRKELINYAFSKNEKTYIYKLAFKKKSELDNLYKEINLFNEIINIDIRHS
2. HMKPSISKIYALWGVLQRSGKIKSQDKAALDAFVRKYTGVDHVKWLDESQARKIIEILKQMIA
3. HMNYIGADAAKNMAAADAQVDTANASFSGANLGEKNGLSYYQVDFTANGREYHYAIDAMTGTVIESSSAAS

# output
1: -0.577; 2: -1.55; 3: 0.122

sequence HMPPSRFNELSMWFQEQLTEAGLKVDSGALKMLIEWLGQDQARLPSIIEVLVSTYGTKKKLTVDEIEPFL , soluble fraction (log2) observed: -0.384

###

Assay: soluble fraction after stress (log2 fold change); higher = more stays soluble; pooled small domains, quantitative proteomics
Conditions: stress: 75 degC
Provide the recorded soluble fraction (log2) for the entries that follow.
Give bare numbers.

Use these answered entries as a reference point.
>  <sequence_code>
HMEEIALTDILNRFLSSLSLEQRKIFMRRYWYLSPIKEIATEYGMSESKIKMSLFRSRNELKKLLEKEGI

>  <soluble fraction (log2)>
-0.499

$$$$
>  <sequence_code>
HMGKEDLTAAIKKMTLNDKLDIHKIVANFQTNDSEEVITAVKWLMENNYLLKIKNNYTWNTKEK

>  <soluble fraction (log2)>
-0.901

$$$$
>  <sequence_code>
HMDAVKKKVQSTNTLLDVLKQMLPQTSSNTLRKMLTNQRITVDGETIHRAKHTVEKDQTVEIHPKP

>  <soluble fraction (log2)>
0.215

$$$$
>  <sequence_code>
HMVVYDAELLLNINPGMSYEEVKEMLGDPGMIIAGNDAENSVYRWSTGGISFMGRFENGALIRKSIISP

>  <soluble fraction (log2)>
-0.862

$$$$
>  <sequence_code>
HMGDAATVFRDHYNINSAAQAQAALDRKEALWEQPNPWRDSDNREVFDWAAQTVKDRFDSGKYKPK

>  <soluble fraction (log2)>
0.626

$$$$
>  <sequence_code>
HMEVENAQLLARLTPQEHRVFERVVAGLSNREIGSEMDISIKTVEVHRARVMRKLEANSVAELVRFHIHN

>  <soluble fraction (log2)>
-2.37

$$$$
>  <sequence_code>
HMEAEVIKTASDMADRNGLHNVSLKAIAENLGIRTPSLYNHIGSLDELLREIAHSGMRTMNE

>  <soluble fraction (log2)>
-0.0854

$$$$
>  <sequence_code>
HMVITQVSTTQTDTTFQYHKVKPKETLFSISRLYEVSIDEIKTINPALNSRELMAGELLKLPIK

>  <soluble fraction (log2)>
-1.4

$$$$

For every item below, please supply its soluble fraction (log2).
1. HMGYKDIDKLSGVDLAIYRFIVEHDEQIPYMRVRELARGAHVSNSSVMRFIRKIGYDSFPEFKVSLRS
2. HMEEINTAPVFKNIIEIAEYAKTKFTTVEEIPKMIEFIETANSKLDNPHDEESVNELINALSTNIRKNV
3. HMRKVVLEEKEANYYAEPNSESELLGVLKRGIHLTVTDVKKEAGSDGWVKLVHPDGQEGWISGRARIRV
4. HMGQTDTIIKTTTDLYYEMSTMSDDDKLVVAQTLRDVWMAVGRWSGKLSKKQREKVAEVKRVLGE
5. HMRMLTKRRQDLLLELLEERGSITVSEVKDMLDASESTIRRDITALDEEGKLVKVFGGAVAAR

# output
-0.0854
0.347
-0.212
-0.866
-0.345

###

Assay: soluble fraction after stress (log2 fold change); higher = more stays soluble; pooled small domains, quantitative proteomics
Conditions: stress: 75 degC
Kindly state soluble fraction (log2) for each of the entries shown.

The following sequences have reported results that may help.
>  <sequence_code>
HMQNMVYVATKDIPAGGVIDQDSVSKTAISTSIDTSLYITDDDLGKIAVVNISQGQSVFSNMVGT

>  <readout_kind>
soluble fraction (log2)

>  <data_value>
0.656

$$$$
>  <sequence_code>
HMQGEDEILKIHEALEELAQIDARLVRVVEMRYFVGLSNQEIADSLGVTTRTVERDWEKARTFLFNALHP

>  <readout_kind>
soluble fraction (log2)

>  <data_value>
-1.86

$$$$
>  <sequence_code>
HMKPRVTVVTLGVDDLERAVRFYAEGLGFPTEGIVGREFEFGAVAFFDMQPGLRLALWPRRSLAHDSGLP

>  <readout_kind>
soluble fraction (log2)

>  <data_value>
-0.373

$$$$
>  <sequence_code>
HMDLRVKRTNKMIMEAFIHLVEQKGYDNITVQEIADEAMINRATFYAHFKDKQDLYDHIFKQAI

>  <readout_kind>
soluble fraction (log2)

>  <data_value>
-0.902

$$$$
>  <sequence_code>
HMDRWSLLTLTTLAGGTLRFTELKRAIGDISQRMLAQTLRTLEREGYVSRKVYATIPPKVEYRLTALGQSL

>  <readout_kind>
soluble fraction (log2)

>  <data_value>
-3.21

$$$$
>  <sequence_code>
HMRRRTLRQGATGSDVHAVQRLLNVDGAGLRTDGIFGPATERAVIAYQRKHGLAVDGVVGRETWTALLG

>  <readout_kind>
soluble fraction (log2)

>  <data_value>
-0.743

$$$$
>  <sequence_code>
HMRRQRNPEIFDQLVNKFHFTFTQTQQLKQLIKRWHMLFPGKSLKSAIQGYKSAKEILTYINDSLDVVE

>  <readout_kind>
soluble fraction (log2)

>  <data_value>
0.213

$$$$

# evaluate next
# soluble fraction (log2) of HMEFDSLINYEVKKKETLFSISKKFKIEINDLLSFNTELKNNKLKKNSIIIIPLKKKIVESQNFEKQKIID = -1.49

###

Test: soluble fraction after stress (log2 fold change); higher = more stays soluble; pooled small domains, quantitative proteomics
Details: stress: 75 degC
readout_kind: soluble fraction (log2)
Answers are plain numbers.

For orientation, consider the following solved cases.
>  <sequence_code>
HMRWSDQKEIVTLSLDHVLVEKGRKTKEYSWREFRTFTAFEIKKSSKDQINLGFKSKGNTVIIGNF

>  <readout_kind>
soluble fraction (log2)

>  <data_value>
-1.2

$$$$
>  <sequence_code>
HMHGLNQNKPIPIADIVNSVNNYLTSLGKKTITDNSVLSNLKKAAKYLNTAYNLVLRPDSLNMTVTLL

>  <readout_kind>
soluble fraction (log2)

>  <data_value>
0.323

$$$$
>  <sequence_code>
HMTYNIPEHYQTIDVKEYVRKLVSDGDSDQIGRVEMELTEFETRNLFPVLKVLIYIIDTMRK

>  <readout_kind>
soluble fraction (log2)

>  <data_value>
-3

$$$$

Value of measured soluble fraction (log2) for the entry HMQVITEPFQEKYREFINMSTVTQRLEERETLSFTAQTVEGRWLTIIIVPQGYDKTGKLSTVLVANR : 0.274
